# Measured on: human TREK-1 (Homo sapiens)
# Construct: expressed in transfected cells
# Sequence (O95069 whole entry): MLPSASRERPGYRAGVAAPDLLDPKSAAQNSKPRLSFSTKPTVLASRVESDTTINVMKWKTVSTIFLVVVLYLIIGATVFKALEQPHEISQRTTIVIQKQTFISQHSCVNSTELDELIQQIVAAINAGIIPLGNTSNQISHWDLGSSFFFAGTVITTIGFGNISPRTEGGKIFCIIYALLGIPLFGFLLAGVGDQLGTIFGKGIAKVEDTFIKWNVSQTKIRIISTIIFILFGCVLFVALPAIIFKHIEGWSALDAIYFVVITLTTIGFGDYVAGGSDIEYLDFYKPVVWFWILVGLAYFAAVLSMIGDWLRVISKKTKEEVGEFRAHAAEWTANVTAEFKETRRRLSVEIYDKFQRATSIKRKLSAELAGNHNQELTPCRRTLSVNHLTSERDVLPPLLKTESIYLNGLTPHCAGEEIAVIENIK
# Assay overview: TREK-1 Thallium (Tl+) flux assay, Method 1
# Format: cell-based
# Condition description: TREK-1 Thallium (Tl+) flux assay; no *^12 (Method 2) mark on these rows
Below is a list of entries, each paired with its recorded IC50 value.
Numbers only; they are read as nM.

The examples below pair each entry with its known result.
Problem: Fill blank: measured IC50 of the compound "Cc1cc(C#Cc2ccc(F)cc2)cnc1NC(=O)c1c(Cl)cnn1C[C@H]1CCCN(C(=O)OC(C)(C)C)C1" is ____.
Solution: 940

Problem: Fill blank: measured IC50 of the compound "O=C(Nc1c(F)cc(C#Cc2ccccc2)cc1F)c1c(Cl)cnn1[C@H]1CCOC1" is ____.
Solution: 310

More entries:
Problem: Fill blank: measured IC50 of the compound Cc1cc(C#Cc2ccccc2)cnc1NC(=O)c1c(Cl)cnn1CC1CCN(C(=O)OC(C)(C)C)CC1C (stereo not drawn) is ____.
Solution: 430

Problem: Fill blank: measured IC50 of the compound "Cc1ncc(Cn2ncc(Cl)c2C(=O)Nc2ncc(C#Cc3ccccc3)cc2C)s1" is ____.
Solution: 1130

Problem: Fill blank: measured IC50 of the compound "CC(C)(C)OC(=O)N1CCC2(CC1)CC(n1ncc(Cl)c1C(=O)Nc1ncc(C#Cc3ccccc3)cc1F)C2" is ____.
Solution: 770

Problem: Fill blank: measured IC50 of the compound "CC(C)(C)OC(=O)N[C@H]1C[C@@H](n2ncc(Cl)c2C(=O)Nc2ncc(C#Cc3ccccc3)cc2F)C1" is ____.
Solution: 640

Problem: Fill blank: measured IC50 of the compound Cc1cc(C#Cc2ccc(F)cc2)cnc1NC(=O)c1c(Cl)cnn1CC1CCCN(C(=O)C2COCCO2)C1 (stereo not drawn) is ____.
Solution: 340

Problem: Fill blank: measured IC50 of the compound "CC(C)(C)OC(=O)N1CC(n2ncc(Cl)c2C(=O)Nc2ncc(C#Cc3ccccc3)cc2F)C1" is ____.
Solution: 380

Problem: Fill blank: measured IC50 of the compound "Cc1cc(C#Cc2ccc(F)cc2)cnc1NC(=O)c1c(Cl)cnn1[C@H]1C[C@H](NC(=O)C(C)C)C1" is ____.
Solution: 310

Problem: Fill blank: measured IC50 of the compound CC(C)C(=O)N1CCC(Cn2ncc(Cl)c2C(=O)Nc2ncc(C#Cc3ccccc3)cc2F)C(F)(F)C1 (stereo not drawn) is ____.
Solution: 330

Problem: Fill blank: measured IC50 of the compound "CC(C)(C)OC(=O)N1CC[C@@H](n2ncc(Cl)c2C(=O)Nc2ncc(C#Cc3ccccc3)cc2F)[C@H](F)C1" is ____.
Solution: 720

Problem: Fill blank: measured IC50 of the compound "COc1ccc(-c2cnc(NC(=O)c3c(Cl)cnn3C3CCN(C(=O)OC(C)(C)C)CC3)c(C)c2)cc1C(C)C" is ____.
Solution: 1210
